Hi there, I'd appreciate the recorded viability, T/C for every entry that follows.
- System: 885512-296-R-J2-PDC complex spheroid viability
- assaySummary: Anticancer human tumor 885512-296-R-J2-PDC patient-derived breast carcinoma cell line growth inhibition [GQUAD]
- conditionNotes: second compound 0.0316 µM; first compound 0.0316 µM; stronger effect = lower value
Number in %, nothing else.

Req: // viability, T/C lookup, key: O=C(c1cc(Cc2n[nH]c(=O)c3ccccc23)ccc1F)N1CCN(C(=O)C2CC2)CC1 + Cc1cnc(CNC(=O)c2c(=O)c3ccc(N4CCCN(C)CC4)nc3n3c2sc2ccccc23)cn1
Resp: 78.3

Req: // viability, T/C lookup, key: Cn1ncnc1[C@H]1c2n[nH]c(=O)c3cc(F)cc(c23)N[C@@H]1c1ccc(F)cc1 + CN(C)c1ccc(Nc2c3ccc(NC(=O)CCN4CCCC4)cc3nc3cc(NC(=O)CCN4CCCC4)ccc23)cc1
Resp: 90.5

Req: // viability, T/C lookup, key: Cc1cccc(N(C)C(=O)C2C(O)CCN2c2nc(C)cc(C(F)(F)F)c2C#N)c1 (stereo unspecified) + CN(C)c1ccc(Nc2c3ccc(NC(=O)CCN4CCCC4)cc3nc3cc(NC(=O)CCN4CCCC4)ccc23)cc1
Resp: 101

Req: // viability, T/C lookup, key: O=C(NO)c1cnc(N2CCN(S(=O)(=O)c3ccc4ccccc4c3)CC2)nc1 + CN(C)c1ccc(Nc2c3ccc(NC(=O)CCN4CCCC4)cc3nc3cc(NC(=O)CCN4CCCC4)ccc23)cc1
Resp: 89.6

Req: // viability, T/C lookup, key: C=CCn1c(=O)c2cnc(Nc3ccc(N4CCN(C)CC4)cc3)nc2n1-c1cccc(C(C)(C)O)n1 + CN(C)c1ccc(Nc2c3ccc(NC(=O)CCN4CCCC4)cc3nc3cc(NC(=O)CCN4CCCC4)ccc23)cc1
Resp: 104

Req: // viability, T/C lookup, key: COc1ncnc(C2CC2)c1-c1ncc2cnn(Cc3ccc(-c4nc(C(F)(F)F)cn4C(C)C)cc3)c2n1 + Cc1[nH]c2ccc(F)cc2c1-c1nc2c3cccnc3c3ncccc3c2[nH]1
Resp: 89.9

Req: // viability, T/C lookup, key: COc1cccc2c1C(=O)c1c(O)c3c(c(O)c1C2=O)CC(O)(C(=O)CO)CC3OC1CC(N)C(O)C(C)O1 (stereo unspecified) + Cc1[nH]c2ccc(F)cc2c1-c1nc2c3cccnc3c3ncccc3c2[nH]1
Resp: 96.2

Req: // viability, T/C lookup, key: CC(C)n1c(=O)n(C)c2cnc3cc(F)c(-c4ccc(OCCCN5CCCCC5)nc4)cc3c21 + CN(C)c1ccc(Nc2c3ccc(NC(=O)CCN4CCCC4)cc3nc3cc(NC(=O)CCN4CCCC4)ccc23)cc1
Resp: 89.9

Req: // viability, T/C lookup, key: Cc1cccc(N(C)C(=O)C2C(O)CCN2c2nc(C)cc(C(F)(F)F)c2C#N)c1 (stereo unspecified) + Cc1cnc(CNC(=O)c2c(=O)c3ccc(N4CCCN(C)CC4)nc3n3c2sc2ccccc23)cn1
Resp: 93.2

Req: // viability, T/C lookup, key: COc1ccc([C@@H](O)c2cc(-c3ncnc4cc(N5CCOCC5)ccc34)c(F)cc2Cl)nn1 + Cc1cnc(CNC(=O)c2c(=O)c3ccc(N4CCCN(C)CC4)nc3n3c2sc2ccccc23)cn1
Resp: 93.6

Req: // viability, T/C lookup, key: O=C(c1cc(Cc2n[nH]c(=O)c3ccccc23)ccc1F)N1CCN(C(=O)C2CC2)CC1 + Cc1[nH]c2ccc(F)cc2c1-c1nc2c3cccnc3c3ncccc3c2[nH]1
Resp: 105

* * *

Hi there, I'd appreciate the recorded viability, T/C for every entry that follows.
- Test system: 885512-296-R-J2-PDC complex spheroid viability
- assaySummary: Anticancer human tumor 885512-296-R-J2-PDC cell line growth inhibition [GQUAD];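 also: spheroids exposed to the compounds for one week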;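 as to viability, T/C: percent of tumor spheroid viability relative to DMSO vehicle control wells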
- conditionNotes: second compound 0.316 µM; first compound 0.1 µM; stronger effect = lower value
Number in %, nothing else.

Req: // viability, T/C lookup, key: O=C(c1cc(Cc2n[nH]c(=O)c3ccccc23)ccc1F)N1CCN(C(=O)C2CC2)CC1 + CN(C)c1ccc(Nc2c3ccc(NC(=O)CCN4CCCC4)cc3nc3cc(NC(=O)CCN4CCCC4)ccc23)cc1
Resp: 110

Req: // viability, T/C lookup, key: CC1COCCN1c1cc(-c2ccnn2C)c2ccnc(-c3ccn[nH]3)c2n1 (stereo unspecified) + Cc1[nH]c2ccc(F)cc2c1-c1nc2c3cccnc3c3ncccc3c2[nH]1
Resp: 3.68

Req: // viability, T/C lookup, key: C=CC(=O)N1CCN(c2nc(=O)n(-c3c(C)ccnc3C(C)C)c3nc(-c4c(O)cccc4F)c(F)cc23)C(C)C1 (stereo unspecified) + Cc1cnc(CNC(=O)c2c(=O)c3ccc(N4CCCN(C)CC4)nc3n3c2sc2ccccc23)cn1
Resp: 29.3

Req: // viability, T/C lookup, key: C=CCn1c(=O)c2cnc(Nc3ccc(N4CCN(C)CC4)cc3)nc2n1-c1cccc(C(C)(C)O)n1 + Cc1cnc(CNC(=O)c2c(=O)c3ccc(N4CCCN(C)CC4)nc3n3c2sc2ccccc23)cn1
Resp: 16.4

Req: // viability, T/C lookup, key: CC(C)(O)C1CCC(Nc2ccc3ncc(-c4cccc(C(F)(F)F)c4)n3n2)CC1 (stereo unspecified) + Cc1[nH]c2ccc(F)cc2c1-c1nc2c3cccnc3c3ncccc3c2[nH]1
Resp: 89.6

Req: // viability, T/C lookup, key: Nc1ccn(C2OC(CO)C(O)C2(F)F)c(=O)n1 (stereo unspecified) + Cc1[nH]c2ccc(F)cc2c1-c1nc2c3cccnc3c3ncccc3c2[nH]1
Resp: 3.44

* * *

Hi there, I'd appreciate the recorded pIC50 for every entry that follows.
- Test system: 885512-296-R-J2-PDC complex spheroid viability
- assaySummary: Anticancer human tumor 885512-296-R-J2-PDC cell line growth inhibition [GQUAD];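 also: spheroids exposed to the compounds for one week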
- conditionNotes: curve of first compound; second compound 10 µM
pIC50: −log10 of the molar value.

Req: Notebook: pull reported pIC50 for 885512-296-R-J2-PDC complex spheroid viability, entry CC[C@@]1(O)C(=O)OCc2c1cc1n(c2=O)Cc2cc3c(CN(C)C)c(O)ccc3nc2-1 + Cc1cnc(CNC(=O)c2c(=O)c3ccc(N4CCCN(C)CC4)nc3n3c2sc2ccccc23)cn1
Resp: > 9.00

Req: Notebook: pull reported pIC50 for 885512-296-R-J2-PDC complex spheroid viability, entry C#Cc1c(F)ccc2cc(O)cc(-c3ncc4c(N5CC6CCC(C5)N6)nc(OCC56CCCN5CC(F)C6)nc4c3F)c12 (stereo not given) + Cc1cnc(CNC(=O)c2c(=O)c3ccc(N4CCCN(C)CC4)nc3n3c2sc2ccccc23)cn1
Resp: > 7.50

Req: Notebook: pull reported pIC50 for 885512-296-R-J2-PDC complex spheroid viability, entry C=CC(=O)N1CCN(c2nc(=O)n(-c3c(C)ccnc3C(C)C)c3nc(-c4c(O)cccc4F)c(F)cc23)C(C)C1 (stereo not given) + CN(C)c1ccc(Nc2c3ccc(NC(=O)CCN4CCCC4)cc3nc3cc(NC(=O)CCN4CCCC4)ccc23)cc1
Resp: > 7.50

Req: Notebook: pull reported pIC50 for 885512-296-R-J2-PDC complex spheroid viability, entry C#Cc1c(F)ccc2cc(O)cc(-c3ncc4c(N5CC6CCC(C5)N6)nc(OCC56CCCN5CC(F)C6)nc4c3F)c12 (stereo not given) + CN(C)c1ccc(Nc2c3ccc(NC(=O)CCN4CCCC4)cc3nc3cc(NC(=O)CCN4CCCC4)ccc23)cc1
Resp: > 7.50

Req: Notebook: pull reported pIC50 for 885512-296-R-J2-PDC complex spheroid viability, entry COc1cccc2c1C(=O)c1c(O)c3c(c(O)c1C2=O)CC(O)(C(=O)CO)CC3OC1CC(N)C(O)C(C)O1 (stereo not given) + Cc1[nH]c2ccc(F)cc2c1-c1nc2c3cccnc3c3ncccc3c2[nH]1
Resp: > 7.50

* * *

- Test system: 885512-296-R-J2-PDC complex spheroid viability
- assaySummary: Anticancer human tumor 885512-296-R-J2-PDC cell line growth inhibition [GQUAD]; active = viability on the fitted dose curve at most 10% of control; inactive = the rest;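 also: spheroids exposed to the compounds for one week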
- conditionNotes: second compound 1 µM; first compound 1 µM
Outcome (select one): active, inactive

Req: Please share the test call associated with COc1cc(C2c3cc4c(cc3C(OC3OC5COC(C)OC5C(O)C3O)C3COC(=O)C23)OCO4)cc(OC)c1O (stereo not given) + CN(C)c1ccc(Nc2c3ccc(NC(=O)CCN4CCCC4)cc3nc3cc(NC(=O)CCN4CCCC4)ccc23)cc1 .
Resp: inactive

Req: Please share the test call associated with Cc1cccc(N(C)C(=O)C2C(O)CCN2c2nc(C)cc(C(F)(F)F)c2C#N)c1 (stereo not given) + Cc1[nH]c2ccc(F)cc2c1-c1nc2c3cccnc3c3ncccc3c2[nH]1 .
Resp: inactive

Req: Please share the test call associated with O=C(c1cc(Cc2n[nH]c(=O)c3ccccc23)ccc1F)N1CCN(C(=O)C2CC2)CC1 + Cc1cnc(CNC(=O)c2c(=O)c3ccc(N4CCCN(C)CC4)nc3n3c2sc2ccccc23)cn1 .
Resp: inactive

Req: Please share the test call associated with O=C(c1cc(Cc2n[nH]c(=O)c3ccccc23)ccc1F)N1CCN(C(=O)C2CC2)CC1 + Cc1[nH]c2ccc(F)cc2c1-c1nc2c3cccnc3c3ncccc3c2[nH]1 .
Resp: inactive

Req: Please share the test call associated with C=CCn1c(=O)c2cnc(Nc3ccc(N4CCN(C)CC4)cc3)nc2n1-c1cccc(C(C)(C)O)n1 + Cc1cnc(CNC(=O)c2c(=O)c3ccc(N4CCCN(C)CC4)nc3n3c2sc2ccccc23)cn1 .
Resp: active

Req: Please share the test call associated with CC1COCCN1c1cc(C2(S(C)(=N)=O)CC2)nc(-c2ccnc3[nH]ccc23)n1 (stereo not given) + Cc1[nH]c2ccc(F)cc2c1-c1nc2c3cccnc3c3ncccc3c2[nH]1 .
Resp: inactive

Req: Please share the test call associated with CC(=O)O[C@H]1C(=O)[C@@]2(C)[C@H]([C@H](OC(=O)c3ccccc3)[C@]3(O)C[C@H](OC(=O)[C@H](O)[C@@H](NC(=O)c4ccccc4)c4ccccc4)C(C)=C1C3(C)C)[C@]1(OC(C)=O)CO[C@@H]1C[C@@H]2O + Cc1[nH]c2ccc(F)cc2c1-c1nc2c3cccnc3c3ncccc3c2[nH]1 .
Resp: active

Req: Please share the test call associated with CC1COCCN1c1cc(-c2ccnn2C)c2ccnc(-c3ccn[nH]3)c2n1 (stereo not given) + CN(C)c1ccc(Nc2c3ccc(NC(=O)CCN4CCCC4)cc3nc3cc(NC(=O)CCN4CCCC4)ccc23)cc1 .
Resp: active

Req: Please share the test call associated with C=CCn1c(=O)c2cnc(Nc3ccc(N4CCN(C)CC4)cc3)nc2n1-c1cccc(C(C)(C)O)n1 + Cc1[nH]c2ccc(F)cc2c1-c1nc2c3cccnc3c3ncccc3c2[nH]1 .
Resp: inactive

Req: Please share the test call associated with COc1ccc([C@@H](O)c2cc(-c3ncnc4cc(N5CCOCC5)ccc34)c(F)cc2Cl)nn1 + CN(C)c1ccc(Nc2c3ccc(NC(=O)CCN4CCCC4)cc3nc3cc(NC(=O)CCN4CCCC4)ccc23)cc1 .
Resp: inactive
